Below, each entry is listed alongside its reported inhibition at 30 µg/mL.
# Test system: DNA synthesis in HL-60 cells
# protocol: Inhibition of [3H-methyl]dThd incorporation into DNA of HL-60 cells
# Type: cell-based, human
# study-conditions: Homo sapiens, HL-60, at 0.03 mg/mL; read-out: % Inhibition of Precursor Incorporation, DNA

{"molecule": "COc1cc(OC(C)=O)cc2c1c(=O)c1ccccc1n2C [Compound 9, 3-O-Acetyl-1-methoxy-R-methyl acridone]", "assay-system": "DNA synthesis in HL-60 cells", "inhibition at 30 µg/mL": "71.1%"}
{"molecule": "Cn1c2ccccc2c(=O)c2c(O)cc3c(c21)C=CC(C)(C)O3 [Compound 35, Noracronycine]", "assay-system": "DNA synthesis in HL-60 cells", "inhibition at 30 µg/mL": "25.5%"}
{"molecule": "CC(C)=CCc1c(O)cc(O)c2c(=O)c3ccccc3n(C)c12 [Compound 11, Glycocitrine-II]", "assay-system": "DNA synthesis in HL-60 cells", "inhibition at 30 µg/mL": "99.5%"}
{"molecule": "COc1cc(O)c2c(=O)c3ccccc3n(C)c2c1CC=C(C)C [Compound 12, 3-O-methyl-glycocitrine-II]", "assay-system": "DNA synthesis in HL-60 cells", "inhibition at 30 µg/mL": "61.8%"}
{"molecule": "COc1c2c(c(O)c3c(=O)c4cccc(O)c4n(C)c13)C=CC(C)(C)O2 [Compound 48, Pyranofoline]", "assay-system": "DNA synthesis in HL-60 cells", "inhibition at 30 µg/mL": "98.8%"}
{"molecule": "COc1cc(O)cc2c1c(=O)c1ccccc1n2C [Compound 8, 1-Methoxy-3-Hydroxy N-methyl acridone]", "assay-system": "DNA synthesis in HL-60 cells", "inhibition at 30 µg/mL": "53.3%"}
{"molecule": "COc1ccc2c(=O)c3c(O)cc(OC)c(CC=C(C)C)c3n(C)c2c1OC [Compound 30, Balyumine-B]", "assay-system": "DNA synthesis in HL-60 cells", "inhibition at 30 µg/mL": "86.9%"}
